// data source = ChEMBL document CHEMBL1139955

pKi: −log10 of the molar value.
Here we list compounds with their recorded pKi when tested on C-X-C chemokine receptor type 1 (Homo sapiens, UniProt P25024).
Sequence (P25024 whole entry): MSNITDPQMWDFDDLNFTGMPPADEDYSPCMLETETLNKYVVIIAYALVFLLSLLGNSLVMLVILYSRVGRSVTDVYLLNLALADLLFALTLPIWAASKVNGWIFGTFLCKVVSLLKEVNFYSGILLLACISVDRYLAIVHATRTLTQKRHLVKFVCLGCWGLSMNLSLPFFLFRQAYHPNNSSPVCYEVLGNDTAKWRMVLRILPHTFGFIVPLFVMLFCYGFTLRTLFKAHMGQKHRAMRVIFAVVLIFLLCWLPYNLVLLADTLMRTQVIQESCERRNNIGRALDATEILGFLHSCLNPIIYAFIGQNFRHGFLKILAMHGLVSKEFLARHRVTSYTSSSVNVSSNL

>  <chemicalSmiles>
CCCCc1coc([C@@H](CC)Nc2c(Nc3cccc(C(=O)N(C)C)c3O)c(=O)c2=O)c1

>  <testedSystem>
C-X-C chemokine receptor type 1 (Homo sapiens, UniProt P25024)

>  <pKi>
7.47

$$$$
>  <chemicalSmiles>
CCc1coc([C@@H](CC)Nc2c(Nc3cccc(C(=O)N(C)C)c3O)c(=O)c2=O)c1

>  <testedSystem>
C-X-C chemokine receptor type 1 (Homo sapiens, UniProt P25024)

>  <pKi>
8.15

$$$$
>  <chemicalSmiles>
CC[C@@H](Nc1c(Nc2cccc(C(=O)N(C)C)c2O)c(=O)c1=O)c1sccc1C

>  <testedSystem>
C-X-C chemokine receptor type 1 (Homo sapiens, UniProt P25024)

>  <pKi>
6.91

$$$$
>  <chemicalSmiles>
CCC(CC)c1coc([C@@H](CC)Nc2c(Nc3cccc(C(=O)N(C)C)c3O)c(=O)c2=O)c1

>  <testedSystem>
C-X-C chemokine receptor type 1 (Homo sapiens, UniProt P25024)

>  <pKi>
7.52

$$$$
>  <chemicalSmiles>
CC(C)c1coc([C@H](Nc2c(Nc3cccc(C(=O)N(C)C)c3O)c(=O)c2=O)C(F)(F)F)c1

>  <testedSystem>
C-X-C chemokine receptor type 1 (Homo sapiens, UniProt P25024)

>  <pKi>
7.80

$$$$
>  <chemicalSmiles>
CC[C@@H](Nc1c(Nc2cccc(C(=O)N(C)C)c2O)c(=O)c1=O)c1cc(C)cs1

>  <testedSystem>
C-X-C chemokine receptor type 1 (Homo sapiens, UniProt P25024)

>  <pKi>
7.62

$$$$
>  <chemicalSmiles>
CC(C)c1coc([C@@H](C)Nc2c(Nc3cccc(C(=O)N(C)C)c3O)c(=O)c2=O)c1

>  <testedSystem>
C-X-C chemokine receptor type 1 (Homo sapiens, UniProt P25024)

>  <pKi>
7.30

$$$$
>  <chemicalSmiles>
CC[C@@H](Nc1c(Nc2cccc(C(=O)N(C)C)c2O)c(=O)c1=O)c1ccc(C)s1

>  <testedSystem>
C-X-C chemokine receptor type 1 (Homo sapiens, UniProt P25024)

>  <pKi>
6.84

$$$$

---

testedSystem: C-X-C chemokine receptor type 1 (Homo sapiens, UniProt P25024)
assayProtocol: Displacement of [125I]IL8 from human CXCR1 expressed in CHO cells by SPA
propertyName: IC50 (nM)

>  <chemicalSmiles>
CC[C@@H](Nc1c(Nc2cccc(C(=O)N(C)C)c2O)c(=O)c1=O)c1cc(C(C)C)co1

>  <unitOfMeasure>
nM

>  <valueObserved>
7.3

$$$$

---

assayProtocol: AUC in monkey at 3 mg/kg, po after 48 hrs
Type: ADME, organism-based, Macaca mulatta
Design: time < 48 hr, dose 3 mg/kg, route oral
condition: rhesus monkey, plasma
propertyName: AUC at 48 h

>  <chemicalSmiles>
CC[C@@H](Nc1c(Nc2cccc(C(=O)N(C)C)c2O)c(=O)c1=O)c1cc(C(C)C)co1

>  <valueObserved>
4.2 µM·h

$$$$

---

assayProtocol: Cmax in monkey at 3 mg/kg, po after 48 hrs
Format: ADME, organism-based, Macaca mulatta
Set-up: dose 3 mg/kg, route oral
condition: rhesus monkey, in vivo
propertyName: Cmax (nM)

>  <chemicalSmiles>
CC[C@@H](Nc1c(Nc2cccc(C(=O)N(C)C)c2O)c(=O)c1=O)c1cc(C(C)C)co1

>  <propertyName>
Cmax

>  <unitOfMeasure>
nM

>  <valueObserved>
380

$$$$
